These entries and their values trace back to ChEMBL document CHEMBL1158511.

- Assay text: Cmax in Sprague-Dawley rat at 1 mg/kg, po
- Format: ADME, organism-based
- Set-up: dose 1 mg/kg, route oral
- Condition set: in vivo
Metric: Cmax (nM)
State just the number; it will be interpreted in nM.

Input line: Using the record for Cc1cccc2c1C(=O)NC1CNCCN21 (single isomer, unassigned; (+)) , report its Cmax.
Output line: 293

----------
- Experimental system: 5-hydroxytryptamine receptor 2A (Homo sapiens)
- Sequence (P28223 whole entry): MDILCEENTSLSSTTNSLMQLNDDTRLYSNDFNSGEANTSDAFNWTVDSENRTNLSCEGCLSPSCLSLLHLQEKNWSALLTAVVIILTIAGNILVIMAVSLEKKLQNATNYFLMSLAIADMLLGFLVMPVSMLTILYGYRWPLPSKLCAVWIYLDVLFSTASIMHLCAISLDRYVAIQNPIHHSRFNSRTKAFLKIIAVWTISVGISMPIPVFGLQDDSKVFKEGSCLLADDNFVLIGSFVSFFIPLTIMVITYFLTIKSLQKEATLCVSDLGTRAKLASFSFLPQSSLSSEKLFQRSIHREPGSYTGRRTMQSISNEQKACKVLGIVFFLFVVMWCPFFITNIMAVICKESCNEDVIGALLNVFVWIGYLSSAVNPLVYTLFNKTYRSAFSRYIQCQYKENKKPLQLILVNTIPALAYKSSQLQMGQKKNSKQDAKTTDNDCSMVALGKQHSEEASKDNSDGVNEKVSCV
- Assay text: Displacement of [125I]DOI from human recombinant 5HT2A receptor expressed in HEK293E cells
Metric: Ki (nM)
State just the number; it will be interpreted in nM.

The following molecules have reported results that may help.
[
  {
    "Molecule": "Cc1ccc2c(c1)N1CCNCCC1NC2=O (stereo in doubt; (-)-3c)",
    "Experimental system": "5-hydroxytryptamine receptor 2A (Homo sapiens)",
    "Reported result": 454
  },
  {
    "Molecule": "Cc1ccc2c(c1)N1CCNCCC1NC2=O (stereo in doubt; (+)-3c)",
    "Experimental system": "5-hydroxytryptamine receptor 2A (Homo sapiens)",
    "Reported result": 364
  },
  {
    "Molecule": "Cc1cccc2c1C(=O)NC1CNCCN21 (single isomer, unassigned; (+))",
    "Experimental system": "5-hydroxytryptamine receptor 2A (Homo sapiens)",
    "Reported result": 229
  },
  {
    "Molecule": "O=C1NC2CCNCCN2c2cccc(Cl)c21 (single isomer, unassigned)",
    "Experimental system": "5-hydroxytryptamine receptor 2A (Homo sapiens)",
    "Reported result": 168
  }
]

The record that follows has no Ki shown yet.
Input line: Using the record for O=C1NC2CNCCN2c2ccc(Cl)cc21 (single isomer, unassigned) , report its Ki.
Output line: 397
